System: most abundant miRNAs in HEK293 cells
experimental-protocol: miRNA inhibition by cocktail of 2'-O-methyl antisense oligoribonucleotides in HEK293 cells; seed match depletion/enrichment in down-/up-regulated transcripts (Affymetrix arrays)
Assay type: cell-based, human
condition-details: antisense cocktail vs mock
reported-property: efficiency of the individual antisense oligoribonucleotide (inhibition of cognate miRNA)

- substance: "miR-21: 2'-O-methyl antisense oligoribonucleotide UCAACAUCAGUCUGAUAAGCUA (SEQ ID NO: 53) (all 2'-O-methyl, backbone not given here)"
  measurement: "Marginal"
- substance: "miR-101: 2'-O-methyl antisense oligoribonucleotide UUCAGUUAUCACAGUACUGUA (SEQ ID NO: 60) (all 2'-O-methyl, backbone not given here)"
  measurement: "Marginal"
